Hey, just so you know, these numbers are from PubChem BioAssay (NCI).

Test system: HCT-15 colon
ASSAY TEXT: NCI-60 one-dose screen, 48 h (100 = growth as untreated, 0 = no growth, -100 = all killed)
RECORDED CONDITIONS: 10 µM unless noted
This is part of a sample that, as a whole, favours compounds with a hit. Of some 83,000 tested, about 20% had one in any assay.
Let's look at some molecules and their measured growth.
Response body: numeric value in %, unit text excluded.

structure_as_smiles=O=C1C(Br)=C(c2ccccc2)C(=O)C(Br)=C1c1ccccc1 measured_parameter=growth endpoint_unit=% value_reported=85.7

Which growth is listed for CCCCCCCCCCCCCCn1c2ccccc2c2c3c(c4c5cc(OC)ccc5oc4c21)C(=O)NC3=O ? 94.9

Quick one: growth for C(=C\c1ccccc1)/CN1CCN(C(c2ccccc2)c2ccccc2)CC1 ? 80.9

----------
System: NCI-H226 lung
ASSAY TEXT: NCI-60 one-dose screen, 48 h (100 = growth as untreated, 0 = no growth, -100 = all killed)
RECORDED CONDITIONS: 10 µM
This is part of a sample that, as a whole, favours compounds with a hit. Of some 83,000 tested, about 20% had one in any assay.
MEASURED PARAMETER: growth (%)
Please state the figure in %; there is no need to write the unit.

The cases that follow already have their growth on record.
structure_as_smiles=c1ccc2c(c1)oc1cc3c(cc12)nnc1cccn13 value_reported=98.5
structure_as_smiles=O=C(C[Si](CC(=O)c1cccc(C(F)(F)F)c1)CC(=O)c1cccc(C(F)(F)F)c1)c1cccc(C(F)(F)F)c1 value_reported=82.9
structure_as_smiles=O=C1C(Cl)=C(NCCCN2CCOCC2)C(=O)c2ccccc21 value_reported=107

Attention now shifts to the item below.
Give its growth value. Item: Cc1nc(NN)c([N+](=O)[O-])c(NN)n1 106

----------
Test system: NCI-H322M lung
ASSAY TEXT: NCI-60 one-dose screen, 48 h (100 = growth as untreated, 0 = no growth, -100 = all killed)
RECORDED CONDITIONS: 10 µM unless noted
About 83,000 compounds went through this panel and 20% of them were active in at least one assay; those are over-represented in the sample as a whole.
MEASURED PARAMETER: growth (%)
Answer with a number only, understood to be in %.

Which growth is listed for COc1ncnc2c1ncn2C/C(Br)=C(\Br)CCl ? 78.9

Look up growth: COc1cccc(C2CC(=O)Nc3cc4c(cc32)CCC4)c1OC (centres undefined) 68

Form field: reported growth of COc1cc(/C=C/C(=O)C(=Cc2ccc(F)c(F)c2)C(=O)/C=C/c2ccc(O)c(OC)c2)ccc1O 59.4

GET /values?readout=growth&item= CCOC(=O)c1cnn(CC(O)c2ccc(F)cc2)c1NC(=O)Nc1ccccc1F (centres undefined) 103

----------
System: HT29 colon
ASSAY TEXT: NCI-60 one-dose screen, 48 h (100 = growth as untreated, 0 = no growth, -100 = all killed)
RECORDED CONDITIONS: 10 µM unless noted
The panel holds about 83,000 compounds, 20% with a hit somewhere; the sample as a whole holds those more often.
Below is a list of entries, each paired with its recorded growth value.
Expressed in %, but write only the number.

For orientation, consider the following solved cases.
compound=Clc1ccc(C2=Nc3cccc4cccc(c34)N2)cc1Cl measured_parameter=growth value_reported=101
compound="CC1SC(c2cccc(Oc3ccccc3)c2)N(CCc2cccs2)C1=O (centres undefined)" measured_parameter=growth value_reported=-24.7
compound="COC1(OC)C2(Cl)C=C(c3ccccc3)C1(Cl)C(Cl)=C2Cl (centres undefined)" measured_parameter=growth value_reported=83.5
compound=CSC1=CC(=O)c2ccccc2C1=O measured_parameter=growth value_reported=103
compound=COc1ccc(/C=C2\Oc3cc(C)c(Cl)cc3C2=O)cc1OC measured_parameter=growth value_reported=109

// growth lookup, key: COc1ccc(/C=N/OCC(O)CNCc2ccccc2)cc1OC1CCCC1 (centres undefined) 104

growth lookup needed for Cc1cccc2c(=O)c3c(sc12)c(NCCCN)nc1ccccc13 , thanks. -52.8

Would you mind telling me what growth value was observed for O=C(CCc1nnc2sc(/C=C\c3ccccc3)nn12)c1nc2ccccc2[nH]1 ? 36.8

Field request: growth | item: COc1cc2cc(Oc3ccc(NC(=O)Nc4ccc(Cl)c(C(F)(F)F)c4)cc3)c(C)nc2cc1OCCN1CCCCC1 -68

----------
Measured growth, listed per entry for reference.
Tested on: K-562 leukemia
ASSAY TEXT: NCI-60 one-dose screen, 48 h (100 = growth as untreated, 0 = no growth, -100 = all killed)
RECORDED CONDITIONS: 10 µM unless noted
This is part of a sample that, as a whole, favours compounds with a hit. Of some 83,000 tested, about 20% had one in any assay.
A number alone suffices; assume %.

Recorded results for 3 compounds are shown here.
compound=CCN1CCN(C(=S)SCC(=O)Nc2nc3ccc(OC)cc3s2)CC1 measured_parameter=growth value_reported=91.8
compound=FC(F)(F)c1cc(CNc2ncc(Br)c(Cl)n2)cc(C(F)(F)F)c1 measured_parameter=growth value_reported=89.1
compound="O=C(N/N=C/c1ccc2c(c1)OCO2)c1cnn2c1NC(c1ccccc1)C2 (centres undefined)" measured_parameter=growth value_reported=29.8

Given the entry CC1(C)CC(=O)C2=C(C1)Nc1cc3c(cc1C2c1ccc(F)cc1)OCO3 (centres undefined) , what growth was observed with K-562 leukemia? 87.8

----------
Reported values of growth for individual entries
System: SF-268 CNS
ASSAY TEXT: NCI-60 one-dose screen, 48 h (100 = growth as untreated, 0 = no growth, -100 = all killed)
RECORDED CONDITIONS: 10 µM unless noted
This is part of a sample that, as a whole, favours compounds with a hit. Of some 83,000 tested, about 20% had one in any assay.
Field format: number, assumed %, no unit text.

// below: answered compounds
compound=COc1ccc(/C=C(\C#N)c2ccc(OC)cc2)cc1 measured_parameter=growth value_reported=78.4
compound=COc1ccc(-c2nc3sc(C)nn3c2-c2nc3cc(C)c(C)cc3[nH]2)cc1 measured_parameter=growth value_reported=101
compound=COC(=O)c1c2c(c(C)[n+]([O-])c1C)C(=O)C=C(NCc1ccc(Cl)cc1)C2=O measured_parameter=growth value_reported=0.305
compound=COc1ccc2c(c1)c(=O)oc1c(C)c(OCC(C)=O)ccc12 measured_parameter=growth value_reported=85.6
compound="CC(C)(C)[Si](C)(C)OC1[C@@H](O[Si](C)(C)C(C)(C)C)[C@@H](CNC(=O)NC(=O)C(F)(F)F)O[C@H]1n1cnc2c(NC(=O)Nc3ccccc3)ncnc21 (stereo partly drawn)" measured_parameter=growth value_reported=-29
compound=COc1ccc(-n2ncc3c4nc(OC)c(S(=O)(=O)c5ccccc5)cc4ccc32)cc1 measured_parameter=growth value_reported=50.9
compound=C=CC[P+](c1ccccc1)(c1ccccc1)c1ccccc1 measured_parameter=growth value_reported=79.2
compound=COc1ccccc1CNCCCCCCCCCCCCN1C(=O)c2ccc3c4c(ccc(c24)C1=O)C(=O)N(CCCCCCCCCCCCNCc1ccccc1OC)C3=O measured_parameter=growth value_reported=69.4

Query (compound): COc1ccc(-c2nc(Nc3ccc(F)cc3)nc(Nc3ccc4c(c3)nc(C)n4Cc3ccccc3)n2)cc1 ; field requested: growth 46.9

What growth value was documented for this compound, COc1ccc(C2SC(C)C(=O)N2CCc2cccs2)cc1OC (stereo not drawn) ? 89.2

I would be grateful if you could share the reported growth for COc1cccc(OC)c1OC(=O)c1ccccc1 . 111

If you can, please state the reported growth value of CN1CCN(c2nc(-c3ccncc3)nc3sc4c(c23)CCCCCC4)CC1 . 61.2

Fill in: growth of COc1ccc(C(=O)C2=CC(=O)C(=O)C2)cc1OC is ___ 103

----------
Tested on: UACC-62 melanoma
ASSAY TEXT: NCI-60 one-dose screen, 48 h
RECORDED CONDITIONS: 10 µM unless noted
The panel holds about 83,000 compounds, 20% with a hit somewhere; the sample as a whole holds those more often. Active and inactive are the calls of the source. The calls were made as follows: active = growth percent below 10; inactive = the rest.
API: response.call in 1 = active, -1 = inactive

compound=COc1nc2c(cc1S(=O)(=O)c1ccccc1)CCc1c-2cnn1-c1ccccc1Cl group=-1

In the following, a different compound is considered.
Field: outcome | Entry: Cc1c(C)n(CC(O)CNC2CCCCC2C)c2ccccc12 (configuration not stated) 1

----------
Tested on: MDA-MB-231 breast
ASSAY TEXT: NCI-60 one-dose screen, 48 h (100 = growth as untreated, 0 = no growth, -100 = all killed)
RECORDED CONDITIONS: 10 µM unless noted
Compounds without any hit were thinned out: in the full panel of roughly 83,000, 20% have a hit.
MEASURED PARAMETER: growth (%)
Number in %, nothing else.

compound=O=C1c2c(c3c4cc(Br)ccc4[nH]c3c3ccc4ccccc4c23)C(=O)N1O study_target="MDA-MB-231 breast" value_reported=81.7
compound="N#CC1=C(N)Oc2cc(N)ccc2C1c1ccc(F)cc1 (stereo not drawn)" study_target="MDA-MB-231 breast" value_reported=83.4
compound=COc1ccc(/C=C2\CN(Cc3cn(CCCNc4ccnc5cc(Cl)ccc45)nn3)C/C(=C\c3ccc(OC)c(OC)c3)C2=O)cc1OC study_target="MDA-MB-231 breast" value_reported=-10.2
compound=Cc1nc2cc(Nc3nc(N4CCCCC4)nc(N4CCOCC4)n3)ccc2n1Cc1ccccc1 study_target="MDA-MB-231 breast" value_reported=9.6
compound=CCCN1CCN(c2ccc3nc(-c4ccc5nc(-c6ccc(C(F)(F)F)cc6)[nH]c5c4)[nH]c3c2)CC1 study_target="MDA-MB-231 breast" value_reported=-86.9

Can you look up the measured growth of Cc1nc(NC(=O)COc2cccc(/C=C3\COc4ccccc4C3=O)c2)sc1C for me? 0.962

Any idea what growth was measured for NC1=NC(c2ccccc2OS(=O)(=O)c2ccc(Br)cc2)n2c(nc3ccccc32)N1 (stereo not drawn) ? 80.1

Fill in the blank: the reported growth of COc1ccc(NC(=O)c2ccc3c(c2)nc(-c2ccc(Cl)cc2)n3-c2cc(C(C)(C)C)[nH]n2)cc1 is ____. 95.4
